Values compiled from patent US20250163167A1.

- measuredOn: T1, human IL-10 receptor (hIL-10R alpha and beta chains) on HEK-Blue IL-10 reporter cells (human, UniProt Q13651 22-578; Q08334 20-325)
- T1 sequence 1: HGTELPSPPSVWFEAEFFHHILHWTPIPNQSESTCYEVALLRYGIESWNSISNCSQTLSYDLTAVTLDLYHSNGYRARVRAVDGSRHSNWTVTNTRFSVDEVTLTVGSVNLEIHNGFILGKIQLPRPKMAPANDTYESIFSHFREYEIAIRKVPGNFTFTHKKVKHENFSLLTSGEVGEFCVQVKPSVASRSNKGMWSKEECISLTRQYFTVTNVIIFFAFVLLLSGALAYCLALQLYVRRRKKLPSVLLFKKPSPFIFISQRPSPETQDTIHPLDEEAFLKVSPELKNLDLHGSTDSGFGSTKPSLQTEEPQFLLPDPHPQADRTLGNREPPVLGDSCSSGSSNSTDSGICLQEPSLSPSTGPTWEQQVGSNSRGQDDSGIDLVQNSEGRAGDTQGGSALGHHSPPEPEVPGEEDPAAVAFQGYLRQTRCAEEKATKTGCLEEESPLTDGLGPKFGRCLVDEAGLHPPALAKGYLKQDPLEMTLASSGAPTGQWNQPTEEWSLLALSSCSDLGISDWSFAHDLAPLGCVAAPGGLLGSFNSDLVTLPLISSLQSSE
- T1 sequence 2: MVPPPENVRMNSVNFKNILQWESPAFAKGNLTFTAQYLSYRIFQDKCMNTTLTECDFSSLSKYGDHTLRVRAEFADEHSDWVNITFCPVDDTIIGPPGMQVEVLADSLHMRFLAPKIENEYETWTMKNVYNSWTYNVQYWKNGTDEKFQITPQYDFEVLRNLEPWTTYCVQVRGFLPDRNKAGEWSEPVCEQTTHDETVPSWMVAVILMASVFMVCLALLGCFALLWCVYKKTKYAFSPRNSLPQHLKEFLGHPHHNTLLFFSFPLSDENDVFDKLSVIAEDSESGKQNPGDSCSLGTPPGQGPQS
- assayDetails: cell-based or functional assay
Reported Abs 630 (25 nM) values for the following binders.
// note: answer is a bare numeric in Abs 630

According to the records, this binder IL10R binding molecule of SEQ ID NO: 339 (bispecific antibody) QVQLQESGGGSVEAGGSLRLSCAASGYTHSSYCMGWFRQAPGKEREGVAAIDVDGSTTYADSVKGRFTISKDNAKNTLYLQMNSLKPEDTGMYYCAAEFADCSSNYFLPPGAVRYWGQGTQVTVSSGGGSQVQLQESGGGSVQAGGSLRLSCAASGYSNCSYDMTWYRQAPGKEREFVSAIHSDGSTRYADSVKGRFFISQDNAKNTVYLQMNSLKPEDTAMYYCKTDPLHCRAHGGSWYSVRANYWGQGTQVTVSSASHHHHHH displays Abs 630 (25 nM) of 0.49

According to the records, this binder IL10R binding molecule of SEQ ID NO: 345 (bispecific antibody) QVQLQESGGGSVQAGGSLRLSCAASGYSYSSYCMGWFRQAPGKEREGVATIDSDGMTRYADSVKGRFTISKDNAKNTLYLQMNSLKPEDTAMYYCAAPLYDCDSGAVGRNPPYWGQGTQVTVSSGGGSQVQLQESGGGSVQAGGSLRLSCGASGYTYSSYCMGWFRQVPGKEREGVAVIDSDGSTSYADSVKGRFTISKDNGKNTLYLQMNSLKPEDTAMYYCAADLGHYRPPCGVLYLGMDYWGKGTQVTVSSASHHHHHH displays Abs 630 (25 nM) of 0.52

According to the records, this binder IL10R binding molecule of SEQ ID NO: 264 (bispecific antibody) QVQLQESGGGSVQAGGSLRLSCAASRFTYSSYCMGWFRQAPGKEREGVASIDSDGSTSYTDSVKGRFTISKDNAKNTLYLQMNSLKPEDTAMYYCALDLMSTVVPGFCGFLLSAGMDYWGKGTQVTVSSGGGSQVQLQESGGGSVQAGGSLRLSCAASGYTYSSYCMGWFRQAPGKEREGVAHIDSDGSTSYADSVKGRFTISKDNAKNTLYLQMNSLKPEDTAMYYCAADPIPGPGYCDGGPNKYWGQGTQVTVSSASHHHHHH displays Abs 630 (25 nM) of 1.52

According to the records, this binder IL10R binding molecule of SEQ ID NO: 308 (bispecific antibody) QVQLQESGGGSVQAGGSLRLSCAASGYTYSSGCMGWFRQAPGKEREAVAAINSDGSTSYADSVKGRFTISKDNAKNTLYLQMNSLKPEDTAMYYCAAEPYCSGGYPRWSVAEFGYWGQGTQVTVSSGGGSQVQLQESGGGSVQAGGSLRLSCAVSGYAYSTYCMGWFRQAPGKEREGVAAIDSGGSTSYADSVKGRFTISKDNAKNTLYLRMNSLKPEDTAMYYCAAVPPPPDGGSCLFLGPEIKVSKADFRYWGQGTQVTVSSASHHHHHH displays Abs 630 (25 nM) of 0.48

According to the records, this binder IL10R binding molecule of SEQ ID NO: 280 (bispecific antibody) QVQLQESGGGSVQAGGSLRLSCAVSGYAYSTYCMGWFRQAPGKEREGVAAIDSGGSTSYADSVKGRFTISKDNAKNTLYLRMNSLKPEDTAMYYCAAVPPPPDGGSCLFLGPEIKVSKADFRYWGQGTQVTVSSGGGSQVQLQESGGGSVQAGGSLRLSCTVSRYTASVNYMGWFRQAPGKEREGVATIFTGAGTTYYANSVKGRFTISRDNAKNTAYLQMNSLKPEDTAIYYCAVDFRGGLLYRPAYEYTYRGQGTQVTVSSASHHHHHH displays Abs 630 (25 nM) of 0.49
